target: NGF (nerve growth factor) (Homo sapiens, UniProt P01138 P01138:122-241); assay: cell_activity; neurite; TF-1 0.455; conditions: tags: R&D Systems; chain copies: 2
Sequence (P01138 122-241, one chain of several): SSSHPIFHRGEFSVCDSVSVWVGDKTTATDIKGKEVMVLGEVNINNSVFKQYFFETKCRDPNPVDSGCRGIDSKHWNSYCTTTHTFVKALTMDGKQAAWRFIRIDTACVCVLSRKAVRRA
value_type: IC50 (nM)
Report only the number, with the unit nM understood.

I would be grateful if you could share the reported IC50 for GGGUCCUGUUGAAGAGUUUCCGUCUCGUCAACUGUUACCC (ssRNA, 2'-F C/U, dA, 2'-OH G) [SEQ ID NO: 117] .
0.394
